test system: K-562 leukemia; experiment: NCI tumour cell line growth inhibition, 48 h
reported metric: TGI

Solved entries:
[[record]]
compound = "Cc1nn(-c2cc(Cl)ccc2[N+](=O)[O-])c(C)c1Cl"
tested_system = "K-562 leukemia"
value_measured = "> 100 µM"

[[record]]
compound = "O=C(N/N=C/c1ccccc1O)c1ccccc1Nc1ccnc(C(F)(F)F)c1"
tested_system = "K-562 leukemia"
value_measured = "> 100 µM"

[[record]]
compound = "COc1ccc(/C=C/c2nccc3ccccc23)cc1OC"
tested_system = "K-562 leukemia"
value_measured = "> 10 µM"

[[record]]
compound = "O=C(c1ccccc1)c1nnc(C(=O)c2ccccc2)nn1"
tested_system = "K-562 leukemia"
value_measured = "> 344 µM"

[[record]]
compound = "COc1ccc2cc(NC(=O)N/N=C\\c3ccc(Cl)cc3)ccc2c1"
tested_system = "K-562 leukemia"
value_measured = "> 100 µM"

[[record]]
compound = "N#Cc1ccc(NC(=O)Nc2ccc(Oc3ccc(NC(=O)Nc4ccc(C#N)cc4)cc3)cc2)cc1"
tested_system = "K-562 leukemia"
value_measured = "> 100 µM"

[[record]]
compound = "CCC[CH2][Sn]([CH2]CCC)([O]C(=O)c1cccnc1SC)[O]C(=O)c1cccnc1SC"
tested_system = "K-562 leukemia"
value_measured = "0.372 µM"

[[record]]
compound = "O=C1CCC(=O)N2CCCCN12"
tested_system = "K-562 leukemia"
value_measured = "> 100 µM"


Q. Report TGI for "O=C1C=C(c2ccccc2)O/C1=C/C(=O)c1ccc(Cl)cc1"
A. 33.7 µM

Q. Report TGI for "Brc1cc2nn(-c3ccccc3)nc2c2nonc12"
A. > 100 µM

Q. Report TGI for OC1(c2ccc(Cl)cc2)c2ccc3ccccc3c2C2=N[C@H]3CCCC[C@@H]3N21 (stereo partly specified)
A. > 100 µM

---

test system: SF-539 CNS; assay: NCI tumour cell line growth inhibition, 48 h
reported metric: GI50

Solved entries:
[[record]]
molecule = "NC(=O)c1ccc(I)c(N)c1"
value_measured = "> 100 µM"

[[record]]
molecule = "CCOC(=O)[C]1([Bi]([CH3])[CH3])N=NC(C(=O)OC)=C1C(=O)OC (stereo not drawn)"
value_measured = "18.1 µM"


Next item in the queue.
Q. Report GI50 for "Cn1c2ccccc2c2c(-c3ccccc3)[n+]3ccncc3nc21"
A. 48.3 µM

---

test system: CCRF-CEM leukemia; test: NCI tumour cell line growth inhibition, 48 h; in the data active means GI50 below about 0.43 µM; inactive means the rest
Select the matching outcome among 1 for active, -1 for inactive

Some solved cases for reference:
[[record]]
smiles_record = "OCc1c[nH]c2ccccc12"
class = -1

[[record]]
smiles_record = "C=C1C(=O)O[C@H]2[C@H]1CC/C(COC(=O)c1ccc3ccccc3c1)=C\\CC[C@@]1(C)O[C@@H]21"
class = 1


Q. Recorded call for "CCC[CH2][Sn]1([CH2]CCC)[O]Cc2nc(C)ccc2[O]1" ?
A. -1

Q. Recorded call for "Oc1ccc(NCc2nc3ccccc3[nH]2)cc1" ?
A. -1

---

TGI: recorded values
tested on: NCI-H23 lung; assay: NCI tumour cell line growth inhibition, 48 h

[[record]]
compound = "COc1c(Br)cc(CC(N)=O)c(O)c1Br"
value_measured = "> 100 µM"


Q. Report TGI for "COc1ccc(/C=C/c2nccc3ccccc23)cc1OC"
A. > 10 µM

Q. Report TGI for CCOC(=O)[C]1([Bi]([CH3])[CH3])N=NC(C(=O)OC)=C1C(=O)OC (configuration not stated)
A. 35 µM

Q. Report TGI for COc1cc(C2=NOC(c3cc(OC)c(OC)c(OC)c3)C2)ccc1OCCCCOc1cc2c(cc1OC)C(=O)N1CCC[C@H]1C=N2 (some centres not stated)
A. 0.559 µM

Q. Report TGI for "CN(C)S(=O)(=O)Nc1nnc(S(N)(=O)=O)s1"
A. > 100 µM
